Assay Remarks: Rodent pharmacokinetics (rat PK)
Format: in vivo
Assay Conditions: po, dosed intravenously or orally by gavage, plasma, read-out: F % (bioavailability)
Reported Property: bioavailability

# example entries with known answers
bioavailability measured on Cn1c(=O)n(C2CCC(=O)NC2=O)c2cccc(C#CCN3CCN(C[C@H]4CC[C@H](n5cc(NC(=O)c6cnn7ccc(N8C[C@H]9C[C@@H]8CO9)nc67)c(C(F)F)n5)CC4)C(=O)C3)c21 (some centres unmarked) [I-185] = ≤ 5%

bioavailability measured on Cn1c(=O)n(C2CCC(=O)NC2=O)c2cccc(N3CC(COC[C@H]4CC[C@H](n5cc6cc(NC(=O)c7cccc(C(F)(F)F)c7)ncc6n5)CC4)C3)c21 (some centres unmarked) [I-269] = ≤ 5%

bioavailability measured on Cn1c(=O)n(C2CCC(=O)NC2=O)c2cccc(N3CCC4(CCN(C[C@H]5CC[C@H](n6cc7cc(NC(=O)c8cncc(Cl)c8)c(C(C)(C)O)cc7n6)CC5)CC4(F)F)CC3)c21 (some centres unmarked) [I-387] = ≤ 5%

bioavailability measured on Cn1nc(C2CCC(=O)NC2=O)c2cccc([C@@H]3CCN(C[C@H]4CC[C@H](n5cc6cc(NC(=O)c7cncc(C(F)(F)F)n7)ncc6n5)CC4)C[C@H]3F)c21 (single isomer, unassigned) [I-370] = ≥ 5%

Next:
bioavailability measured on Cn1c(=O)n(C2CCC(=O)NC2=O)c2cccc(N3CC[C@H](NC[C@H]4CC[C@H](n5cc(NC(=O)c6cnn7ccc(N8C[C@H]9C[C@@H]8CO9)nc67)c(C(F)F)n5)CC4)[C@@H](F)C3)c21 (some centres unmarked) [I-135] = ≥ 5%

bioavailability measured on Cn1c(=O)n(C2CCC(=O)NC2=O)c2cccc([C@H]3CCN(C[C@H]4CC[C@H](n5cc6cc(NC(=O)c7cncc(C#N)c7)c(C(C)(C)O)cc6n5)CC4)CC3(F)F)c21 (single isomer, unassigned) [I-390] = ≤ 5%

bioavailability measured on CN(C[C@H]1CC[C@H](c2nc3cc(C(C)(C)O)c(NC(=O)c4cncc(C(F)(F)F)c4)cc3s2)CC1)[C@@H]1CCN(c2cccc3c2n(C)c(=O)n3C2CCC(=O)NC2=O)C[C@H]1F (single isomer, unassigned) [I-159] = ≥ 5%

bioavailability measured on Cn1c(=O)n(C2CCC(=O)NC2=O)c2cccc(C#CCN3CCN(C[C@H]4CC[C@H](n5cc(NC(=O)c6cnn7ccc(N8C[C@H]9C[C@@H]8CO9)nc67)c(C(F)F)n5)CC4)C[C@H]3C(F)(F)F)c21 (single isomer, unassigned) [I-304] = ≥ 5%

// data source = patent US20250059164A1
